Test: MT-4 cytotoxicity assay
Format: cell-based, human
Settings: human, five days, Cell Titer Glo luminescence; read-out: MT-4 CC50
TEST READOUT: CC50 at 5 days

{"COMPOUND": "COc1cc2c(cc1Oc1ncccn1)[C@H]1CCC(C)(C)N1n1cc(C(=O)O)c(=O)cc1-2 [Example 41]", "CC50 at 5 days": "> 10 µM"}
{"COMPOUND": "CC1(C)CC[C@@H]2c3cc(OCC4CC(F)(F)C4)c(Cl)cc3-c3cc(=O)c(C(=O)O)cn3N21 [Example 54]", "CC50 at 5 days": "5.3 µM"}
{"COMPOUND": "COc1cc2c(cc1OCCCOc1ccccc1)[C@H]1CCC(C)(C)N1n1cc(C(=O)O)c(=O)cc1-2 [Example 61]", "CC50 at 5 days": "6 µM"}
{"COMPOUND": "CC1(C)CC[C@@H]2c3cc(-c4cnn(C5COC5)c4)c(OC(F)(F)F)cc3-c3cc(=O)c(C(=O)O)cn3N21 [Example 93]", "CC50 at 5 days": "> 10 µM"}
{"COMPOUND": "COCCCOc1cc2c(cc1Cl)-c1cc(=O)c(C(=O)O)cn1N1C2CCCC1(C)C (centres unmarked) [Example 11]", "CC50 at 5 days": "> 10 µM"}

For each of the items listed, what is its CC50 at 5 days?
1. COCCCOc1cc2c(cc1Cl)-c1cc(=O)c(C(=O)O)cn1N1C2CCC1(C)C (centres unmarked) [Example 4]
2. COCc1cc2c(cc1OCCCO)[C@H]1CCC(C)(C)N1n1cc(C(=O)O)c(=O)cc1-2 [Compound 111]
3. COc1cc2c(cc1OCCCOCC(F)(F)F)[C@H]1CCC(C)(C)N1n1cc(C(=O)O)c(=O)cc1-2 [Example 60]
4. CC1(C)CC[C@@H]2c3cc(OCC45CC(C#N)(C4)C5)c(OC(F)(F)F)cc3-c3cc(=O)c(C(=O)O)cn3N21 [Example 92]

A.
> 10 µM
> 10 µM
> 10 µM
8.1 µM

For each of the items listed, what is its CC50 at 5 days?
1. COCc1cc2c(cc1OCCCOC(=O)NC1(C(F)F)CC1)[C@H]1CCC(C)(C)N1n1cc(C(=O)O)c(=O)cc1-2 [Example 88]
2. CC1(COc2cc3c(cc2Cl)-c2cc(=O)c(C(=O)O)cn2N2[C@@H]3CCC2(C)C)COC1 [Example 49]
3. COCCCOc1cc2c(cc1OCCCOC)[C@@H]1CCC(C)(C)N1n1cc(C(=O)O)c(=O)cc1-2 [Example 24]
4. COCCCOc1cc2c(cc1OC(F)F)-c1cc(=O)c(C(=O)O)cn1N1C2CCC1(C)C (centres unmarked) [Example 18]
5. CC1(C)CC[C@@H]2c3cc(-c4cnn(C(F)F)c4)c(Cl)cc3-c3cc(=O)c(C(=O)O)cn3N21 [Example 76]
6. COC(C)(C)C#Cc1cc2c(cc1OC(F)F)-c1cc(=O)c(C(=O)O)cn1N1[C@@H]2CCC1(C)C [Example 103]
7. COCCCOc1cc2c(cc1Cl)-c1cc(=O)c(C(=O)O)cn1N1[C@@H]2CCC12COC(C)(C)OC2 [Example 81]

A.
> 10 µM
> 10 µM
> 10 µM
> 10 µM
4.4 µM
> 10 µM
> 10 µM

For each of the items listed, what is its CC50 at 5 days?
1. COCCCOc1cc2c(cc1OC)-c1cc(=O)c(C(=O)O)cn1N1[C@H]2CCCC1(C)C (single isomer, unassigned) [Example 53]
2. COCCCOc1c(OC)cc2c(c1Br)[C@H]1CCC(C)(C)N1n1cc(C(=O)O)c(=O)cc1-2 [Example 40]
3. CCOCCCOc1cc2c(cc1OC)-c1cc(=O)c(C(=O)O)cn1N1[C@@H]2CCC1(C)C [Example 62]
4. COc1cc2c(cc1OCC1CC(F)(F)C1)[C@H]1CCC(C)(C)N1n1cc(C(=O)O)c(=O)cc1-2 [Example 50]
5. CC1(C)CC[C@@H]2c3cc(OCCn4nc5ccccn5c4=O)c(OC(F)(F)F)cc3-c3cc(=O)c(C(=O)O)cn3N21 [Example 91]
6. COCCCOc1cc2c(cc1S(C)(=O)=O)-c1cc(=O)c(C(=O)O)cn1N1[C@@H]2CCC1(C)C [Example 69]

A.
["9.7 µM", "8.8 µM", "> 10 µM", "> 10 µM", "> 10 µM", "> 10 µM"]

For each of the items listed, what is its CC50 at 5 days?
1. COCCCOc1cc2c(cc1OC(C)(C)C)-c1cc(=O)c(C(=O)O)cn1N1[C@@H]2CCC1(C)C [Example 25]
2. COCCCOc1cc2c(cc1Cl)-c1cc(=O)c(C(=O)O)cn1N1[C@H]2CCCC1(C)C (single isomer, unassigned) [Example 13]
3. COCCCOc1c(OC)cc2c(c1F)[C@H]1CCC(C)(C)N1n1cc(C(=O)O)c(=O)cc1-2 [Example 67]
4. COCC12CC(COc3cc4c(cc3OC(F)F)-c3cc(=O)c(C(=O)O)cn3N3[C@@H]4CCC3(C)C)(C1)C2 [Compound 105]
5. COCCCOc1cc2c(cc1COC)-c1cc(=O)c(C(=O)O)cn1N1[C@@H]2CCC1(C)C [Example 73]
6. CC1(C)CC[C@@H]2c3cc(C#CC(C)(C)S(C)(=O)=O)c(OC(F)(F)F)cc3-c3cc(=O)c(C(=O)O)cn3N21 [Example 89]

A.
> 10 µM
> 10 µM
> 10 µM
> 10 µM
> 10 µM
> 10 µM

Q. So what's the measured CC50 at 5 days for this one? COCCCOc1cc2c(cc1OC(F)F)-c1cc(=O)c(C(=O)O)cn1N1[C@H]2CCC1(C)C (single isomer, unassigned) [Example 20]
A. > 10 µM
